readout.label: melting point

- molecule: "COCON1C(=O)C(c2cc(C)ccc2C)=C(OC(=O)CC(C)(C)C)C12CCN(OC)CC2"
  melting point: "93 to 95 °C"

Tell me melting point reported for CCOC(=O)OC1=C(c2c(C)cc(C)cc2C)C(=O)N(CC)C12CCN(OC)CC2 [Compound P1.8]
101 to 103 °C

Tell me melting point reported for CCOC(=O)OC1=C(c2c(C)cc(Cl)cc2C)C(=O)N(OC)C12CCN(OC)CC2
122 to 125 °C

Tell me melting point reported for CON1CCC2(CC1)C(O)=C(c1cc(C)c(C)cc1Cl)C(=O)N2C [Compound P2.26]
191 to 192 °C

Tell me melting point reported for CON1CCC2(CC1)C(O)=C(c1c(C)cc(C)cc1C)C(=O)N2CC1CC1 [Compound P2.8]
223 to 225 °C

Tell me melting point reported for COCON1C(=O)C(c2cc(C)ccc2C)=C(OC)C12CCN(OC)CC2
91 to 93 °C

Tell me melting point reported for COCON1C(=O)C(c2c(F)ccc(C)c2Cl)=C(O)C12CCN(OC)CC2
155 to 158 °C

Tell me melting point reported for COCON1C(=O)C(c2c(C)cc(-c3ccc(Cl)cc3)cc2C)=C(O)C12CCN(OC)CC2
128 °C (dec.)

Tell me melting point reported for CON1CCC2(CC1)C(O)=C(c1cc(Br)c(C)cc1C)C(=O)N2C [Compound P2.28]
182 to 183 °C

Tell me melting point reported for CON1CCC2(CC1)C(O)=C(c1c(C)cc(Cl)cc1C)C(=O)N2OC
88 to 92 °C

Tell me melting point reported for COCON1C(=O)C(c2c(C)cc(Cl)cc2C)=C(O)C12CCN(OC)CC2
176 to 178 °C

Tell me melting point reported for COCCON1C(=O)C(c2cc(Br)c(C)cc2C)=C(O)C12CCN(OC)CC2
63 to 64 °C

###

readout.label: melting point

- molecule: "CON1CCC2(CC1)C(O)=C(c1c(C)cc(C)cc1C)C(=O)N2OCCOC1CCCCO1 (stereo not drawn)"
  melting point: "135 to 137 °C"
- molecule: "CCOC(=O)OC1=C(c2cc(C)c(C)cc2Cl)C(=O)N(C)C12CCN(OC)CC2 [Compound P1.22]"
  melting point: "149 to 150 °C"
- molecule: "CON1CCC2(CC1)C(O)=C(c1cc(C)ccc1C)C(=O)N2C [Compound P2.1]"
  melting point: "121 to 123 °C"
- molecule: "COCCON1C(=O)C(c2cc(Br)c(F)cc2C)=C(O)C12CCN(OC)CC2"
  melting point: "71 to 74 °C"
- molecule: "CCN1C(=O)C(c2c(C)cc(C)cc2C)=C(O)C12CCN(OC)CC2 [Compound P2.11]"
  melting point: "218 to 221 °C"
- molecule: "COCCON1C(=O)C(c2c(C)cc(Cl)cc2C)=C(O)C12CCN(OC)CC2"
  melting point: "161 to 164 °C"

Tell me melting point reported for CCOC(=O)OC1=C(c2c(F)ccc(C)c2Cl)C(=O)N(OCOC)C12CCN(OC)CC2
116 to 119 °C

Tell me melting point reported for CCOC(=O)OC1=C(c2cc(C)ccc2C)C(=O)N(C)C12CCN(OC)CC2 [Compound P1.1]
96 to 110 °C

###

readout.label: melting point

Record excerpt, results attached:
- compound: "COCON1C(=O)C(c2cc(Br)c(F)cc2C)=C(O)C12CCN(OC)CC2"
  melting point: "64 to 67 °C"
- compound: "CCOC(=O)OC1=C(c2cc(C)c(C)cc2Br)C(=O)N(C)C12CCN(OC)CC2 [Compound P1.20]"
  melting point: "158 to 159 °C"
- compound: "CON1CCC2(CC1)C(O)=C(c1cc(C)c(C)cc1Br)C(=O)N2C [Compound P2.23]"
  melting point: "191 to 193 °C"
- compound: "CON1CCC2(CC1)C(O)=C(c1cc(Br)c(C)cc1C)C(=O)N2OC"
  melting point: "86 to 87 °C"
- compound: "CON1CCC2(CC1)C(O)=C(c1c(C)cc(C)cc1C)C(=O)N2OCC1CCCCC1"
  melting point: "169 to 172 °C"
- compound: "CON1CCC2(CC1)C(O)=C(c1c(C)cc(Cl)cc1C)C(=O)N2OC1CCCO1 (stereo not shown)"
  melting point: "137 to 139 °C"

Tell me melting point reported for CON1CCC2(CC1)C(O)=C(c1cc(C)c(C)cc1C)C(=O)N2C [Compound P2.25]
183 to 186 °C
